The origin of these recorded values is patent US20210220408A1.

Biological target: aryl hydrocarbon receptor (AHR) (Homo sapiens, UniProt P35869)
Sequence (P35869 11-848): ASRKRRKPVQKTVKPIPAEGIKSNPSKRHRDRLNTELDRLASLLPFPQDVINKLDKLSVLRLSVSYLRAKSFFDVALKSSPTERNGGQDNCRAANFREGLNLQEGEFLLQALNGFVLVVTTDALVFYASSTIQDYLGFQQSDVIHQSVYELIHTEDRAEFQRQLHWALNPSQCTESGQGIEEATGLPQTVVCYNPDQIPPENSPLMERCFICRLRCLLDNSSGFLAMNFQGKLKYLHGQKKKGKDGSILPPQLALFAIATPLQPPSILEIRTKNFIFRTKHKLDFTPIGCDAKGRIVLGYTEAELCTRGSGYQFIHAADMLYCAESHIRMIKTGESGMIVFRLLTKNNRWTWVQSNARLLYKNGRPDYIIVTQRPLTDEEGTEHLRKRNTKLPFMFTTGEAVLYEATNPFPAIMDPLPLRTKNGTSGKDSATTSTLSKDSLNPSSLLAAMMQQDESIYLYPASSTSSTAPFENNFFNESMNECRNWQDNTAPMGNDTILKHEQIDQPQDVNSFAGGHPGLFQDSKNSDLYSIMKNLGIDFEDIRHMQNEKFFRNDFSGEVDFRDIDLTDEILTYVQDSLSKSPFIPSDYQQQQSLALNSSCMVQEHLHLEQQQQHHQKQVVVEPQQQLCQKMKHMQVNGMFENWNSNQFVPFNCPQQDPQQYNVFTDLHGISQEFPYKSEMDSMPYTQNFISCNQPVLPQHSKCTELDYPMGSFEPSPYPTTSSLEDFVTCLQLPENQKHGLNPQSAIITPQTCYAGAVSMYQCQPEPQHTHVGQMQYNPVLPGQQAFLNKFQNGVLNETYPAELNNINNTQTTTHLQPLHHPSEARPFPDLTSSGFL
Test: DRE-Luciferase reporter high-throughput screen (AHR antagonist, VAF347-activated)
measured_quantity: IC50

query: Could you tell me which IC50 is on file for O=C(Nc1ccc2[nH]c(-c3ccc(Br)o3)nc2c1)c1ccc([N+](=O)[O-])cc1 [41A] ?
result: > 2 µM

query: Could you tell me which IC50 is on file for CCNC(=O)c1sc2ncc(C(=O)c3ccc(C)cc3)n2c1C [compound 66] ?
result: 0.2 to 0.5 µM

query: Could you tell me which IC50 is on file for CC(=O)Nc1cc(Cl)c(-c2ccc([N+](=O)[O-])o2)c(Cl)c1 [101B] ?
result: 0.2 to 0.5 µM

query: Could you tell me which IC50 is on file for CCc1cc(C(=O)Nc2ccc(SC)cc2)sc1C [compound 38] ?
result: 0.5 to 1 µM

query: Could you tell me which IC50 is on file for Cc1cnn(-c2nc(-c3ccc(F)cc3)cc(C(F)(F)F)n2)c1 [compound 83] ?
result: < 0.2 µM

query: Could you tell me which IC50 is on file for Cc1noc(C)c1C(=O)Nc1ccc(-c2ccccc2)cc1 [13B] ?
result: 0.5 to 1 µM

query: Could you tell me which IC50 is on file for COc1cccc(NC(=O)c2cc3c(=O)n4ccccc4nc3n2C)c1 [compound 18] ?
result: 0.2 to 0.5 µM

query: Could you tell me which IC50 is on file for Cc1ccc(C(=O)Nc2nc3c(C)cc(C)cc3s2)cc1 [22B] ?
result: 1 to 2 µM

query: Could you tell me which IC50 is on file for O=[N+]([O-])c1ccc(-c2cn3nc(C(F)(F)F)sc3n2)cc1 [compound 68] ?
result: 0.2 to 0.5 µM

query: Could you tell me which IC50 is on file for Fc1ccc(-c2ccc(-c3nnc4n3CCCCC4)s2)cc1 [149A] ?
result: > 2 µM
